biological target: Acetylcholinesterase (Homo sapiens, UniProt P22303)
Sequence (P22303 whole entry): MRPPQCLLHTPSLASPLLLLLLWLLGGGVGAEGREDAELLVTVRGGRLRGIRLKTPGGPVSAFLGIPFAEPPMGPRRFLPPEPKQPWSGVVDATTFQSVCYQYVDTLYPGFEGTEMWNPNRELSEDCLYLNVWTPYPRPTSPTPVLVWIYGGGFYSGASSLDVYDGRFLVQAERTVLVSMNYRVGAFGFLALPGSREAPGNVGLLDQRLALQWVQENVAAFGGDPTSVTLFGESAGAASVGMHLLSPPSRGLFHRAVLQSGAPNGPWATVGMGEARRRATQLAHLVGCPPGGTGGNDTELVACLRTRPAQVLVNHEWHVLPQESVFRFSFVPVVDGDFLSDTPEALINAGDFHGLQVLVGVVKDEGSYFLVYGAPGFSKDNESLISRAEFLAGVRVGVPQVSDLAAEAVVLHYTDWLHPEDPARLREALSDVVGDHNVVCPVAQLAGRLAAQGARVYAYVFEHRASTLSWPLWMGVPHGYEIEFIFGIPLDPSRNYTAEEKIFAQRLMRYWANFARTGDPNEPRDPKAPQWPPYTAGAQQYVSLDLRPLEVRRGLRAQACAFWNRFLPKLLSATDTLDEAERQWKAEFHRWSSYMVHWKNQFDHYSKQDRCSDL
Overview of recorded pIC50 for various compounds
Interpret pIC50 as the negative base-10 log of the concentration measured in mol/L.

*Q* Fill in pIC50 for `COc1ccccc1Cc1ccc(CO[C@H]2C=C[C@@]34CCN(C)Cc5ccc(OC)c(c53)O[C@H]4C2)nc1` tested with Acetylcholinesterase (Homo sapiens, UniProt P22303).
*A* 5.50

*Q* Fill in pIC50 for `COc1ccc2c3c1O[C@H]1C[C@@H](OC(=O)NC4CCN(Cc5ccc(F)cc5F)CC4)C=C[C@@]31CCN(C)C2` tested with Acetylcholinesterase (Homo sapiens, UniProt P22303).
*A* 5.92

Others:
*Q* Fill in pIC50 for `COc1ccc2c3c1O[C@H]1C[C@@H](OC(=O)NC4CCN(Cc5ccccc5F)CC4)C=C[C@@]31CCN(C)C2` tested with Acetylcholinesterase (Homo sapiens, UniProt P22303).
*A* 6.39

These data points were gathered from ChEMBL document CHEMBL6121005.
